Listing: T/C of selected compounds
# System: BDF1 mice, B16 melanoma ip, median survival T/C
# Protocol text: NCI In Vivo Anticancer Drug Screen. Data for tumor model B16 Melanoma (intraperitoneal) in B6D2F1 (BDF1) mice
# Condition details: endpoint: median survival time; dose: 5.0 mg/kg/injection; schedule: Q01DX009 (ip); vehicle: Klucel (hydroxypropylcellulose) (HPC); higher = longer survival
Inconclusive results and toxic doses are left out.

INSERT INTO assay_data (compound, experimental_result) VALUES
  ('[Cl][Pt+2][Cl].[NH-]C1CCC1.[NH-]C1CCC1', '112 % of control'),
  ('CC1OC(n2ccc(NC(=O)c3ccc(NC(=O)C(C)(N)CO)cc3)nc2=O)CC(O)C1OC1OC(C)C(N(C)C)C(O)C1O (stereo not given)', '102 % of control'),
  ('COC(=O)c1c(C)cc(OC(=O)c2c(C)c(Cl)c(O)c(Cl)c2O)cc1O', '97 % of control'),
  ('CCCCCCCCCCCC[S+](C)C', '97 % of control');

API: the following record is the query input.
### Prompt Given the entry N#CCCC1C2CCC(C2)C1C#N (stereo not given) , report its measured T/C.
### Response 112 % of control

###

# Test system: BDF1 mice, B16 melanoma ip, median survival T/C
# Protocol text: NCI In Vivo Anticancer Drug Screen. Data for tumor model B16 Melanoma (intraperitoneal) in B6D2F1 (BDF1) mice
# Condition details: endpoint: median survival time; dose: 100.0 mg/kg/injection; schedule: Q01DX009 (ip); vehicle: Klucel (hydroxypropylcellulose) (HPC); higher = longer survival
Toxic doses and inconclusive results are not listed.
Listing: T/C of selected compounds

INSERT INTO measurements (compound, experimental_result) VALUES
  ('CCOC(=O)c1ccc(NC(=O)Nc2nccs2)cc1', '114 % of control'),
  ('CCOc1ccccc1NC(=O)c1cccc(C(=O)Nc2ccccc2OCC)c1', '105 % of control'),
  ('CCC(C)(C)c1ccc(O)c(C(C)(C)CC)c1', '93 % of control'),
  ('COc1ccc(NC(=O)Oc2ccccc2Cc2ccccc2)cc1', '93 % of control'),
  ('O=CNC(CSC(=O)c1ccccc1)C(=O)O (configuration not stated)', '100 % of control'),
  ('O=P1(N(CCCl)CCCl)NCCCO1 (configuration not stated)', '117 % of control');

API: the following record is the query input.
### Prompt Given the entry `COc1ccc(NC(=S)Nc2ccc(OC)cc2)cc1` , report its measured T/C.
### Response 106 % of control

###

# Test system: BDF1 mice, B16 melanoma ip, median survival T/C
# Protocol text: NCI In Vivo Anticancer Drug Screen. Data for tumor model B16 Melanoma (intraperitoneal) in B6D2F1 (BDF1) mice
# Condition details: endpoint: median survival time; dose: 0.12 mg/kg/injection; schedule: Q01DX009 (ip); vehicle: saline; higher = longer survival
Toxic doses and inconclusive results are not listed.
Observation type: T/C

For orientation, consider the following solved cases.
INSERT INTO assay_data (molecule, assay_system, observation_type, experimental_result) VALUES
  ('N[C@@H](Cc1ccc(N(CCCl)CCCl)cc1)C(=O)O', 'BDF1 mice, B16 melanoma ip, median survival T/C', 'T/C', '102 % of control'),
  ('CCCCCCCCCCCCCCCC(=O)O[C@@]12C[C@@H](C)[C@@]3(O)[C@@H](C=C(CO)C[C@]4(O)C(=O)C(C)=C[C@@H]34)[C@@H]1C2(C)C', 'BDF1 mice, B16 melanoma ip, median survival T/C', 'T/C', '96 % of control'),
  ('O=C1OC(C(O)CO)C(O)=C1O (centres undefined)', 'BDF1 mice, B16 melanoma ip, median survival T/C', 'T/C', '100 % of control');

API: the following record is the query input.
### Prompt Given the entry `COc1cc([C@@H]2c3cc4c(c(O)c3C[C@H]3COC(=O)[C@@H]32)OCO4)cc(OC)c1O` , report its measured T/C.
### Response 97 % of control
